I'd be grateful if you could share measured Binding affinity (RU) for these entries.
# tested-on: acetylcholine receptor
# method-summary: SPR, AchR immobilised on chip, peptide 10 uM
Numbers only here, please. The scale is RU.

Query :: Identify measured Binding affinity (RU) corresponding to RYEDR [5mer-845]
Result :: 15

Query :: Tell us which Binding affinity (RU) value is on record for RKGYCK [6mer-1-230]
Result :: 128

Query :: Using known records, supply Binding affinity (RU) for RFKVK [5mer-1121]
Result :: 29

Query :: Please look at this binder and report its Binding affinity (RU): RATGK [5mer-1143]
Result :: 19
